# targetSystem: Gamma-secretase
# methodSummary: Inhibition of gamma secretase (unknown origin) assessed as reduction in amyloid beta levels by HTRF assay
# Type: protein-complex assay, Homo sapiens
measureName: pIC50
Note on units: pIC50 is unitless, being -log10 of a concentration expressed in mol/L.

Q: Param readout = pIC50; param system = Gamma-secretase; param query = `CC(C)C[C@H](NC(=O)[C@H](Cc1ccccc1)C[C@@H](O)[C@H](Cc1ccccc1)NC(=O)OC(C)(C)C)C(=O)N[C@@H](Cc1ccccc1)C(N)=O` ; response: value
Result: 7.77

----------
# targetSystem: Gamma-secretase
# methodSummary: Modulation of gamma secretase (unknown origin) assessed as reduction in amyloid beta levels
# Type: protein-complex assay, Homo sapiens
measureName: IC50 (µM)
Your answer is read as µM, so omit the unit and give the number.

Q: Which IC50 is reported for this compound? `C[C@@H](C(=O)O)c1ccc(-c2ccccc2)c(F)c1`
Result: 100

----------
# targetSystem: Gamma-secretase
# methodSummary: Inhibition of gamma secretase (unknown origin) mediated Notch signaling
# Format: protein-complex assay, Homo sapiens
measureName: pIC50
Note on units: pIC50 is unitless, being -log10 of a concentration expressed in mol/L.

{"mol": "CC(C)[C@H](O)C(=O)N[C@@H](C)C(=O)N[C@@H]1C(=O)N(C)CCc2ccccc21", "pIC50": 7.85}

Q: Param readout = pIC50; param system = Gamma-secretase; param query = `C[C@H](NC(=O)CCC(F)(F)F)C(=O)N[C@H]1C(=O)N(CCO)c2ncccc2-c2ccccc21` ; response: value
Result: 9.39

----------
# targetSystem: Disintegrin and metalloproteinase domain-containing protein 17 (Homo sapiens, UniProt P78536)
# Sequence (P78536 whole entry, the tested form may be a part): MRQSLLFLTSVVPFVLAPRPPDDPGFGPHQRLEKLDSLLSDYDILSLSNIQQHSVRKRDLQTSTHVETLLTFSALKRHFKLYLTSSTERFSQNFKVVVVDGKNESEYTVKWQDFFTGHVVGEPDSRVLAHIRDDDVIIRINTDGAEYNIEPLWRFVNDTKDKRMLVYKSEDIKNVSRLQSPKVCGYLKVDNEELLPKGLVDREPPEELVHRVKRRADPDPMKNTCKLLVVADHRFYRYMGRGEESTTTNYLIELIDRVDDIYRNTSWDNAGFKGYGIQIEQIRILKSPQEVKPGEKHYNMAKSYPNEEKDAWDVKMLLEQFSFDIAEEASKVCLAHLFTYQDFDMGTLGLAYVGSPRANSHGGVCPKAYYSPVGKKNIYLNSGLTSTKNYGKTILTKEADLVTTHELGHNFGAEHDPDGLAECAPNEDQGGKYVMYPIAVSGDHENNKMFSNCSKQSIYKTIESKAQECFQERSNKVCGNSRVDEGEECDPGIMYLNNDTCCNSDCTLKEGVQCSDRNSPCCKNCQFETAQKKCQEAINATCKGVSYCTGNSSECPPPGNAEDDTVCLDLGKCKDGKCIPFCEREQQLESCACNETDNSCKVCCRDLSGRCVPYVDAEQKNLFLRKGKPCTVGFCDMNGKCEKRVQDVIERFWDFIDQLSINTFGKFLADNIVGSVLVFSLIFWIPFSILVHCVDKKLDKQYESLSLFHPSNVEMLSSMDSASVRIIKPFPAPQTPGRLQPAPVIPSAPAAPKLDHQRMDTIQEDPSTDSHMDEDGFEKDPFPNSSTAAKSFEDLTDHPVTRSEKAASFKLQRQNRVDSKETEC
measureName: pIC50
Note on units: pIC50 is unitless, being -log10 of a concentration expressed in mol/L.

Q: Which pIC50 is reported for this molecule? CC(C)CC(CC(=O)NO)C(=O)N[C@@H](Cc1ccc2ccccc2c1)C(=O)N[C@@H](C)C(=O)NCCN (stereo partly specified)
Result: 5.09

----------
# targetSystem: Gamma-secretase
# methodSummary: Inhibition of gamma secretase in human primary neuronal cells assessed as reduction in amyloid beta 40
measureName: IC50

Q: Which IC50 is reported for this compound? `C[C@H](NC(=O)Cc1cc(F)cc(F)c1)C(=O)N[C@H](C(=O)OC(C)(C)C)c1ccccc1`
Result: 115 to 200 nM

----------
# targetSystem: Gamma-secretase
# methodSummary: Inhibition of gamma secretase in human SupT1 cells assessed as reduction in amyloid beta 40 after 16 hrs by chemiluminescence assay
# Type: cell-based
measureName: IC50 (nM)
Your answer is read as nM, so omit the unit and give the number.

Q: Which IC50 is reported for this molecule? `C[C@H](NC(=O)Cc1cc(F)cc(F)c1)C(=O)N[C@@H]1C(=O)N(C)c2ccccc2-c2ccccc21`
Result: 2.6

----------
# targetSystem: Gamma-secretase
# methodSummary: Inhibition of gamma secretase (unknown origin) mediated Notch activation
# Type: protein-complex assay, Homo sapiens
measureName: pIC50
Note on units: pIC50 is unitless, being -log10 of a concentration expressed in mol/L.

Q: Param readout = pIC50; param system = Gamma-secretase; param query = `CC(C)[C@H](O)C(=O)N[C@@H](C)C(=O)N[C@@H]1C(=O)N(C)c2ccccc2-c2ccccc21` ; response: value
Result: 9.57

----------
# targetSystem: Gamma-secretase
# methodSummary: Inhibition of gamma secretase mediated amyloid beta level reduction in HEK293 cells expressing APP after 72 hrs by chemiluminescence assay
# Assay type: cell-based, Homo sapiens
measureName: IC50 (µM)
Your answer is read as µM, so omit the unit and give the number.

Q: Which IC50 is reported for this molecule? `COc1oc(=O)c2cc(N)ccc2c1Cl`
Result: 30

----------
# targetSystem: Neuroendocrine convertase 2 (Homo sapiens)
# Sequence (P16519 whole entry, the tested form may be a part): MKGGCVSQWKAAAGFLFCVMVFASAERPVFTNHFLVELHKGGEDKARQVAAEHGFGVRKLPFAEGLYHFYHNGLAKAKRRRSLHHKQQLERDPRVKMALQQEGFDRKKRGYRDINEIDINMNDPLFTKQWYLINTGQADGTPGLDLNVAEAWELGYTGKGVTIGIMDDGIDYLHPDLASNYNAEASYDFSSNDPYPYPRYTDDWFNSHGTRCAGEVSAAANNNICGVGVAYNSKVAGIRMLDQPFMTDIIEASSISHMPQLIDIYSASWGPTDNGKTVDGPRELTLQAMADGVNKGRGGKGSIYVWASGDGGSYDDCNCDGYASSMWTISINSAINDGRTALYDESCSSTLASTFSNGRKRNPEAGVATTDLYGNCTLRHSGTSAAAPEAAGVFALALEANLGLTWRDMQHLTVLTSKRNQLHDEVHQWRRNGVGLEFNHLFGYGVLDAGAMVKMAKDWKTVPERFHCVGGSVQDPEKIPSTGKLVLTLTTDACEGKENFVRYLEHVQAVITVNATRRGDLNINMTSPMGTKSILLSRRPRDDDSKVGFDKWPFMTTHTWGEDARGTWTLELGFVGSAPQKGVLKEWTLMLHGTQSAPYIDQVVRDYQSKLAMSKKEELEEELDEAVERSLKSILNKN
# methodSummary: Inhibition of recombinant C-terminal truncated human SPC2 expressed in drosophila Schneider 2 cells after 1 hr by spectrofluorometry
Residues, ends and D or L forms follow the SMILES beside them. *: point of attachment. Decanoyl = CCCCCCCCCC(=O)*; CH2Cl = ClC*
measureName: Ki (nM)
Your answer is read as nM, so omit the unit and give the number.

Q: Which Ki is reported for this compound? CCCCCCCCCC(=O)N[C@@H](CCCNC(=N)N)C(=O)N[C@H](C(=O)N[C@@H](CCCCN)C(=O)N[C@@H](CCCNC(=N)N)C(=O)CCl)C(C)C (Decanoyl-RVKR-CH2Cl)
Result: 0.36

----------
# targetSystem: Gamma-secretase
# methodSummary: Inhibition of gamma secretase in HEK293 cells expressing APP695 assessed as reduction in amyloid beta (1 to 40 residues) by ELISA
# Assay type: cell-based, Homo sapiens
measureName: pEC50
Note on units: pEC50 is unitless, being -log10 of a concentration expressed in mol/L.

Q: Which pEC50 is reported for this compound? CC(C)(C(=O)NCC(F)(F)C(F)(F)F)C(=O)N[C@@H]1C(=O)Nc2ccccc2-c2ccccc21 [RG-4733]
Result: 7.85
